src = patent US20240124536A1

Below is a list of entries, each paired with its recorded Human hepatocytes - Editing %, 1250, rep 2 value.
System: human TTR gene
assay method text: Editing activity in human primary hepatocytes (gRNA + ABE8.8 mRNA co-transfection, NGS of PCR amplicons)
Type: cell-based
condition summary: 1250 ng/RNA/mL, rep 2
observation type: Human hepatocytes - Editing %, 1250, rep 2 (%)

molecule	experimental value
GA460: Human/Cyno TTR guide RNA, spacer UAUAGGAAAACCAGUGAGUC, gRNA SEQ ID NO: 14 (nucleic acid, chemistry not given here) guide: TATAGGAAAACCAGTGAGTCGTTTTAGAGCTAGAAATAGCAAGTTAAAATAAGGCTAGTCCGTTATCAACTTGAAAAAGTGGCACCGAGTCGGTGCTTTT	35.8
GA459: Human TTR guide RNA, spacer GCAACUUACCCAGAGGCAAA, gRNA SEQ ID NO: 13 (nucleic acid, chemistry not given here) guide: GCAACTTACCCAGAGGCAAAGTTTTAGAGCTAGAAATAGCAAGTTAAAATAAGGCTAGTCCGTTATCAACTTGAAAAAGTGGCACCGAGTCGGTGCTTTT	6.15
GA457: Human TTR guide RNA, spacer GCCAUCCUGCCAAGAAUGAG, gRNA SEQ ID NO: 11 (nucleic acid, chemistry not given here) guide: GCCATCCTGCCAAGAATGAGGTTTTAGAGCTAGAAATAGCAAGTTAAAATAAGGCTAGTCCGTTATCAACTTGAAAAAGTGGCACCGAGTCGGTGCTTTT	24.86
GA461: Human/Cyno TTR guide RNA, spacer UACUCACCUCUGCAUGCUCA, gRNA SEQ ID NO: 15 (nucleic acid, chemistry not given here) guide: TACTCACCTCTGCATGCTCAGTTTTAGAGCTAGAAATAGCAAGTTAAAATAAGGCTAGTCCGTTATCAACTTGAAAAAGTGGCACCGAGTCGGTGCTTTT	32.38
